# MEASUREMENT NOTES: qHTS Assay for Identification of Small Molecule Antagonists for NFkB Signaling Pathway (AID 895)
# CONDITIONS USED: NFkB beta-lactamase reporter cells, FRET ratio 460/530, stimulated with 10 pM TNF alpha; series mostly up to 38.3 µM
Inconclusive results are not listed. Calls of active or inactive are those of the source. Calls come from the whole dose curve; as a rule, active = well fitted inhibition curve with a large enough effect in the signal ratio, with a control signal flat (not every such curve was filed as active); inconclusive = small, poorly fitted or top-dose-only effect, or effect the other way, or a change in a side signal; inactive = flat fitted curve, though single readings scatter; the % refers to the signal ratio.
Outcome codes: 1 (active), -1 (inactive)

CHEMICAL STRING	ASSIGNED LABEL
CN1CCN(C2=Nc3ccccc3Oc3ccc(Cl)cc32)CC1	-1
Cc1nc2c([nH]1)c(=O)n(C)c(=O)n2Cc1ccco1	1
N[C@@H](COP(=O)(O)O)C(=O)O	-1
CC(=O)Nc1nnc(S(N)(=O)=O)s1	-1
CCN(CC)CC(=O)Nc1c(C)cccc1C	-1
CCC(=O)c1ccc2c(c1)N(CCCN(C)C)c1ccccc1S2	-1
Cc1nc2ccccn2c(=O)c1CCN1CCC(C(=O)c2ccc(F)cc2)CC1	-1
CC[N+](C)(C)c1cccc(O)c1	-1
